Test: Clinical Trial 3: phase 1 single ascending IV dose, PK
Format: in vivo, human
Conditions: human, plasma; 40 mg single IV dose, healthy adult subjects; read-out: mean observed Cmax
Procedure: A phase 1, randomized, blinded, sponsor-open, placebo-controlled, single ascending dose (SAD) study was conducted to assess the safety, tolerability, PK, and PD of single IV doses of Compound 1 and two active metabolites (M1 and M2) in healthy adult subjects. Five dose cohorts (each cohort composed of six Compound 1 subjects and two placebo subjects) were evaluated. Subjects received a single dose of Compound 1 or placebo. […]
quantity-kind: Cmax

In [3]: df
Out[3]:
                                   compound  observed_value
0  COc1cccc(C(=O)Nc2ccc(OCCN3CCOCC3)c(-c3ccnn3C)c2)c1      1840 ng/mL

* * *

experiment: Clinical Trial 3: phase 1 single ascending IV dose, PK; type: in vivo, human; conditions: human, plasma; single IV doses 1 to 40 mg, healthy adult subjects; read-out: mean terminal elimination half-life
quantity-kind: half-life

In [3]: df
Out[3]:
                                   compound  observed_value
0  COc1cccc(C(=O)Nc2ccc(OCCN3CCOCC3)c(-c3ccnn3C)c2)c1 [Compound 1]   60 to 120 min
